susceptibility, % overview
# Tested on: Klebsiella isolates
# method.description: Antibiotic susceptibility of Klebsiella clinical isolates per 7-SNP clonotype (Lookup Table 1; disk diffusion)
# Type: cell-based, Klebsiella spp.
# measurement.parameters: CT 350
# Procedure: In further embodiments, the Lookup Table is Lookup Table 1. The information contained in Lookup Table 1 below was obtained from urine specimens from patients with Klebsiella infections from several clinics within different regions of the United States. CT=clonotypes determined using a 7-SNP combination: phoE54; rpoB130; infB279; mdh315; phoE336; phoE354; and mdh429. Next, antibiotic resistance was determined for all 387 Klebsiella isolates in the discovery set. […]
Write the value in % as a bare number.

Use these answered entries as a reference point.
C[C@@H](O)[C@H]1C(=O)N2C(C(=O)O)=C(SCCN=CN)C[C@H]12 : 100
O=C1CN(/N=C/c2ccc([N+](=O)[O-])o2)C(=O)N1 : 54
C[C@@H]1O[C@@H]1P(=O)(O)O : 44
CC1(C)S[C@@H]2[C@H](NC(=O)[C@H](N)c3ccccc3)C(=O)N2[C@H]1C(=O)O : 0

Record CN(C)[C@@H]1C(O)=C(C(N)=O)C(=O)[C@@]2(O)C(O)=C3C(=O)c4c(O)cccc4[C@@](C)(O)[C@H]3C[C@@H]12 , field susceptibility, %: 83
